Reference source for all entries: ChEMBL document CHEMBL4513141

System: Staphylococcus aureus
Stated Conditions: Concentration 20 uM; ASSAY_TEST Inhibition of Bacterial Growth; detection method Absorption (OD600); MEDIA CAMHB; plate type 384well; NBS; CORNING #3640; time 18 hr
Description: Antibacterial activity against Staphylococcus aureus MRSA ATCC 43300 (CO-ADD:GP_020); MIC in CAMBH media, using NBS plates, by OD(600)
Entries with a potency or affinity are not part of this list.
Measurement Kind: Inhibition (%)
Enter your answer as a number in %; do not include the unit.

Previously resolved entries follow.
| Compound | Inhibition / % |
| --- | --- |
| Cc1ncc([N+](=O)[O-])n1CCO | 17.23 |
| O=C(NCCO[N+](=O)[O-])c1cccnc1 | 13.24 |
| CN(C)CCCN1c2ccccc2Sc2ccc(Cl)cc21.Cl [CHLORPROMAZINE HYDROCHLORIDE] | 10.22 |
| Nc1nc(N)nc(-c2cc(Cl)ccc2Cl)n1.O=C(O)/C=C\C(=O)O [IRSOGLADINE MALEATE] | 8.27 |
| CC(C)OC(=O)CCC/C=C\C[C@@H]1[C@@H](CC[C@@H](O)CCc2ccccc2)[C@H](O)C[C@@H]1O | 13.97 |

The recorded Inhibition for CC(CN1c2ccccc2Sc2ccccc21)N(C)C.Cl (stereo not drawn) [PROMETHAZINE HYDROCHLORIDE] is 15.79

What the record says about NS(=O)(=O)Cc1noc2ccccc12 [ZONISAMIDE] : Inhibition is 1.04

What the record says about COC(=O)C1=C(C)NC(C)=C(C(=O)OC(C)C)C1c1cccc2nonc12 (stereo not drawn) : Inhibition is 14.31

response.value for COC(=O)C1=C(C)NC(C)=C(C(=O)OCC(C)C)C1c1ccccc1[N+](=O)[O-] (stereo not drawn) (field: Inhibition) = 10.19

Short answer for COc1ccc(OC)c(C(O)CNC(=O)CN)c1.Cl (stereo not drawn) [MIDODRINE HYDROCHLORIDE] : Inhibition was 15.42

Query CC(=O)OCC(=O)[C@@]1(O)CC[C@H]2[C@@H]3CCC4=CC(=O)CC[C@]4(C)[C@H]3[C@@H](O)C[C@@]21C [HYDROCORTISONE ACETATE] yields Inhibition of 9.41

Sure, the documented Inhibition for Sc1ncnc2nc[nH]c12 [MERCAPTOPURINE ANHYDROUS] is 22.75

----------
Known Inhibition of a selection of compounds
Test system: Staphylococcus aureus
Stated Conditions: Concentration 20 uM; ASSAY_TEST Inhibition of Bacterial Growth; detection method Absorption (OD600); MEDIA CAMHB; plate type 384well; NBS; CORNING #3640; time 18 hr
Entries with a potency or affinity are not part of this list.
A number alone suffices; assume %.

| Compound | System Tested | U | Measured Number |
| --- | --- | --- | --- |
| O=C1CCC(N2C(=O)c3ccccc3C2=O)C(=O)N1 (stereo not given) [THALIDOMIDE] | Staphylococcus aureus | % | 9.61 |
| Cl.O.O=C(c1ccc(F)cc1)C1CCN(CCn2c(=S)[nH]c3ccccc3c2=O)CC1 | Staphylococcus aureus | % | 2.33 |
| OCCN1CCN(CCCN2c3ccccc3Sc3ccc(Cl)cc32)CC1 | Staphylococcus aureus | % | 23.21 |
| COc1ccc(-c2cc(=O)c3c(OC)c(OC)c(OC)c(OC)c3o2)cc1OC | Staphylococcus aureus | % | 13.24 |

Let's switch to this compound now.
Value of measured Inhibition for the entry `Nc1ccn([C@H]2CC[C@@H](CO)O2)c(=O)n1` : 4.24

----------
Test system: Escherichia coli
Stated Conditions: Concentration 20 uM; ASSAY_TEST Inhibition of Bacterial Growth; detection method Absorption (OD600); MEDIA CAMHB; plate type 384well; NBS; CORNING #3640; time 18 hr
Description: Antibacterial activity against Escherichia coli ATCC 25922 (CO-ADD:GN_001); MIC in CAMBH media using NBS plates, by OD(600)
Measured potencies and affinities stand elsewhere.
Measurement Kind: Inhibition (%)
Write the answer as a number in %, unit excluded.

Consider the following illustrative entries.
| Molecule | System Tested | Measured Number |
| --- | --- | --- |
| Nc1ccc(O)c(C(=O)O)c1 | Escherichia coli | 3.21 |
| Cl.O=C(NCC1CCCCN1)c1cc(OCC(F)(F)F)ccc1OCC(F)(F)F (stereo not drawn) | Escherichia coli | -6.42 |
| NC(=O)N1c2ccccc2C=Cc2ccccc21 [CARBAMAZEPINE] | Escherichia coli | -3.33 |
| COC(=O)[C@H](c1ccccc1Cl)N1CCc2sccc2C1 | Escherichia coli | -0.51 |
| CN(C)CC[C@@H](c1ccc(Br)cc1)c1ccccn1.O=C(O)/C=C\C(=O)O [DEXBROMPHENIRAMINE MALEATE] | Escherichia coli | 5.01 |
| C[C@]12CCC(=O)C=C1CC[C@@H]1[C@@H]2[C@@H](O)C[C@@]2(C)[C@H]1CC[C@]2(O)C(=O)COC(=O)CCC(=O)O [HYDROCORTISONE HEMISUCCINATE ANHYDROUS] | Escherichia coli | 4.71 |
| Cc1cnc(NC(=O)C2=C(O)c3ccccc3S(=O)(=O)N2C)s1 | Escherichia coli | 7.37 |
| Nc1nc2c(ncn2COC(CO)CO)c(=O)[nH]1 | Escherichia coli | 0.63 |
| CCN(CC)CC1CCCCN1CC(=O)N1c2ccccc2C(=O)Nc2cccnc21 (stereo not drawn) | Escherichia coli | 5.55 |
| O=C([O-])c1cc(=O)c2c(OCC(O)COc3cccc4oc(C(=O)[O-])cc(=O)c34)cccc2o1.[Na+].[Na+] [CROMOLYN SODIUM] | Escherichia coli | -1.24 |

For record CC(C)[N+](C)(CCOC(=O)C1c2ccccc2Oc2ccccc21)C(C)C.[Br-] [PROPANTHELINE BROMIDE] the listed Inhibition is 4.45

Recorded result, O=C1c2c(O)cc(O)cc2O[C@H](c2ccc(O)c(O)c2)[C@H]1O [(+)-TAXIFOLIN] , Inhibition: -0.85

Entry under test: CN(CCOc1ccc(CC2SC(=O)NC2=O)cc1)c1ccccn1.O=C(O)/C=C\C(=O)O (stereo not drawn) [ROSIGLITAZONE MALEATE] . Its Inhibition was 0.27

Per the records, this molecule ( `OCCN(CCO)c1nc(N2CCCCC2)c2nc(N(CCO)CCO)nc(N3CCCCC3)c2n1` ) has Inhibition equal to 7.34

# Inhibition of C[C@H](N[C@@H](CCc1ccccc1)C(=O)O)C(=O)N1CCC[C@H]1C(=O)O [ENALAPRILAT ANHYDROUS] = 7.09

Item: CCN1CCCC1CNC(=O)c1cc(S(=O)(=O)CC)c(N)cc1OC (stereo not drawn) [AMISULPRIDE] | Inhibition: -7.41

`NNC(=O)c1ccncc1` yielded Inhibition of 0.87

Summary for this molecule, CC(C)NCC(O)c1ccc(NS(C)(=O)=O)cc1.Cl (stereo not drawn) [SOTALOL HYDROCHLORIDE] : Inhibition is 5.97

get_value(item= NS(=O)(=O)c1cc2c(cc1C(F)(F)F)NCNS2(=O)=O [HYDROFLUMETHIAZIDE] , readout=Inhibition) returns 7.25

The value of Inhibition measured for the molecule CCCOc1ccc(C(=O)OCCN(CC)CC)cc1N.Cl [PROPARACAINE HYDROCHLORIDE] turned out to be 2.71

----------
System: Escherichia coli
Stated Conditions: Concentration 20 uM; ASSAY_TEST Inhibition of Bacterial Growth; detection method Absorption (OD600); MEDIA CAMHB; plate type 384well; NBS; CORNING #3640; time 18 hr
Measured potencies and affinities stand elsewhere.
Measurement Kind: Inhibition

// worked examples, Inhibition included
| Compound | Inhibition |
| --- | --- |
| COc1ccc2[nH]c([S+]([O-])Cc3ncc(C)c(OC)c3C)nc2c1 (stereo not given) | -0.65% |
| Nc1nc(N)c2nc(-c3ccccc3)c(N)nc2n1 | 10.99% |
| CS(=O)(=O)O.Oc1ccc(C2CNCCc3c2cc(O)c(O)c3Cl)cc1 (stereo not given) [FENOLDOPAM MESYLATE] | -0.49% |

Entry under test: CC(=O)O.NCc1ccc(S(N)(=O)=O)cc1 [MAFENIDE ACETATE] . Its Inhibition was 1.36%

// Inhibition value for `Nc1ccc(S(=O)(=O)c2ccc(N)cc2)cc1` : 0.96%

----------
System: Staphylococcus aureus
Stated Conditions: Concentration 20 uM; ASSAY_TEST Inhibition of Bacterial Growth; detection method Absorption (OD600); MEDIA CAMHB; plate type 384well; NBS; CORNING #3640; time 18 hr
Potency and affinity values are given separately.
Measurement Kind: Inhibition
Answer with the value and then the unit.

| Compound | Inhibition |
| --- | --- |
| CO[C@H]1O[C@@H]2O[C@@]3(C)CC[C@H]4[C@H](C)CC[C@@H]([C@H]1C)[C@@]24OO3 | 8.78% |
| C[C@]12CCC(=O)C=C1CC[C@@H]1[C@@H]2[C@@H](O)C[C@@]2(C)[C@H]1CC[C@]2(O)C(=O)COC(=O)CCC(=O)O [HYDROCORTISONE HEMISUCCINATE ANHYDROUS] | -27.4% |
| Cc1nc(=O)c2cc(CN(C)c3ccc(C(=O)N[C@@H](CCC(=O)O)C(=O)O)s3)ccc2[nH]1 | 9.09% |

Just so you know, measured Inhibition for `CC[C@H](C)C(=O)O[C@H]1C[C@@H](C)C=C2C=C[C@H](C)[C@H](CC[C@@H]3C[C@@H](O)CC(=O)O3)[C@H]21` came out at 9.76%
